Molecular target: UniProt P06737
Sequence (P06737 whole entry): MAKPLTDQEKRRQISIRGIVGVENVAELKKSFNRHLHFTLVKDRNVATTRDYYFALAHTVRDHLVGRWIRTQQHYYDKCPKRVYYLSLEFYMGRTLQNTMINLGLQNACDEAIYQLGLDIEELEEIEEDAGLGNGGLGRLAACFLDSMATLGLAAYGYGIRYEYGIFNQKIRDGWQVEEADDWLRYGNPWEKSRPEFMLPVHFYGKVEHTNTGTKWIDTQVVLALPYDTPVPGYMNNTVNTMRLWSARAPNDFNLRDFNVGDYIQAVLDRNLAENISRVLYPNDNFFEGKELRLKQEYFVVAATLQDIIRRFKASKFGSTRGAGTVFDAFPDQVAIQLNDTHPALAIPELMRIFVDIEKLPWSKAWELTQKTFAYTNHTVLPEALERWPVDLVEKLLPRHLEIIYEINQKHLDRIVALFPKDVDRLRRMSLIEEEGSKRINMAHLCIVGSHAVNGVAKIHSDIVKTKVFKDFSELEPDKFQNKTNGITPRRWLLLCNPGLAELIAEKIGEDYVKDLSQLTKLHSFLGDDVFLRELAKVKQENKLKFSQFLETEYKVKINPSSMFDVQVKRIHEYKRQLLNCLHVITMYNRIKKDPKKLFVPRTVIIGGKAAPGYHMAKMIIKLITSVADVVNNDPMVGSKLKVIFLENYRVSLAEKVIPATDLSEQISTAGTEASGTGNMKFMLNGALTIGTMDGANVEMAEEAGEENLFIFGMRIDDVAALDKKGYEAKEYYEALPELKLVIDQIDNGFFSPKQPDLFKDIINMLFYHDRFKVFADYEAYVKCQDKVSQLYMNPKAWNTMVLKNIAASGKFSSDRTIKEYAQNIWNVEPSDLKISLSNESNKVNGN
Test: Competitive inhibition of human liver glycogen phosphorylase-a assessed as release of inorganic phosphate using varying levels of glucose-1-phosphate and constant concentration of AMP and glycogen preincubated for 15 mins with AMP and glycogen followed by glucose-1-phosphate addition

# structure as smiles, Ki, nM
rows = [
    ("OC[C@H]1O[C@@H](c2nnc(-c3ccccc3)[nH]2)[C@H](O)[C@@H](O)[C@@H]1O", 1350),
]

---

target: Glycogen phosphorylase, muscle form (Oryctolagus cuniculus, UniProt P00489); assay: Competitive inhibition of rabbit muscle glycogen phosphorylase-b in presence of varying levels of glucose-1-phosphate and constant concentration of glycogen and AMP preincubated for 15 mins with AMP and glycogen followed by glucose-1-phosphate addition by Lineweaver-Burk plot method
Sequence (P00489 whole entry): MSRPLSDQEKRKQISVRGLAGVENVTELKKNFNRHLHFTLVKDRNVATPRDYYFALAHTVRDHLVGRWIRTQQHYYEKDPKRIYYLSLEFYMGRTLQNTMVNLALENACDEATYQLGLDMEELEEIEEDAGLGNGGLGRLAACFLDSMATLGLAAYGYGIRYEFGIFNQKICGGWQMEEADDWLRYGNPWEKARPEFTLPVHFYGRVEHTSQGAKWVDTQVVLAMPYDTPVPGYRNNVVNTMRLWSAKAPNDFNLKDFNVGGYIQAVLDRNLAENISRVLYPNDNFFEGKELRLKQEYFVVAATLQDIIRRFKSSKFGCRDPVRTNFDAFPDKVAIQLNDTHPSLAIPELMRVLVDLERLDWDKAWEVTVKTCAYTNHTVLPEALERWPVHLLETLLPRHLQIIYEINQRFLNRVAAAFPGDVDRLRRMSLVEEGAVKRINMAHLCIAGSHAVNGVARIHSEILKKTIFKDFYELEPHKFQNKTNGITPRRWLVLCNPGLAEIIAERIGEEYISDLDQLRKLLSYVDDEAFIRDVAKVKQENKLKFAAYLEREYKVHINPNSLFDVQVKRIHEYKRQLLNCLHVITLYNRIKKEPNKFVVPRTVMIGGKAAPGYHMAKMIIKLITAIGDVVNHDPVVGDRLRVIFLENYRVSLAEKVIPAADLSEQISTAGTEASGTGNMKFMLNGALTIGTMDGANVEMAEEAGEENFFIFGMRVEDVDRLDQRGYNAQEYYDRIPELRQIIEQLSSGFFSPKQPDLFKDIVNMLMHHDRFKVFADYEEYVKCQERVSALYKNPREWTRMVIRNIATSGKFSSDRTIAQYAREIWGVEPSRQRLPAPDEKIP
Below, each entry is listed with its recorded log10(Ki).
recorded endpoint: log10(Ki) (log10 of the value in µM)

# structure as smiles, reported
rows = [
    ("N[C@@H]1[C@@H](O)[C@H](O)[C@@H](CO)O[C@H]1c1nc(-c2ccccc2)c[nH]1", 0.43),
    ("N[C@@H]1[C@@H](O)[C@H](O)[C@@H](CO)O[C@H]1c1nc2ccccc2[nH]1", 2.03),
    ("N[C@@H]1[C@@H](O)[C@H](O)[C@@H](CO)O[C@H]1c1nc(-c2ccccc2)n[nH]1", 1.55),
    ("N[C@@H]1[C@@H](O)[C@H](O)[C@@H](CO)O[C@H]1c1nc(-c2ccc3ccccc3c2)n[nH]1", 0.68),
    ("N[C@@H]1[C@@H](O)[C@H](O)[C@@H](CO)O[C@H]1c1nc(-c2ccc3ccccc3c2)c[nH]1", -0.72),
    ("N[C@@H]1[C@@H](O)[C@H](O)[C@@H](CO)O[C@H]1n1cc(-c2ccc3ccccc3c2)nn1", 2.55),
]

---

biological target: Glycogen phosphorylase, muscle form (Oryctolagus cuniculus, UniProt P00489); experiment: Competitive inhibition of rabbit muscle glycogen phosphorylase-a in presence of varying levels of glucose-1-phosphate and constant concentration of glycogen and AMP preincubated for 15 mins with AMP and glycogen followed by glucose-1-phosphate addition by Lineweaver-Burk plot method
Below, each entry is listed with its recorded Ki.
recorded endpoint: Ki (µM)

# structure as smiles, experimental target, reported
records = [
    ("N[C@@H]1[C@@H](O)[C@H](O)[C@@H](CO)O[C@H]1c1nc(-c2ccccc2)c[nH]1", "Glycogen phosphorylase, muscle form (Oryctolagus cuniculus, UniProt P00489)", 3.11),
    ("N[C@@H]1[C@@H](O)[C@H](O)[C@@H](CO)O[C@H]1c1nc(-c2ccccc2)n[nH]1", "Glycogen phosphorylase, muscle form (Oryctolagus cuniculus, UniProt P00489)", 30.2),
    ("N[C@@H]1[C@@H](O)[C@H](O)[C@@H](CO)O[C@H]1c1nc(-c2ccc3ccccc3c2)c[nH]1", "Glycogen phosphorylase, muscle form (Oryctolagus cuniculus, UniProt P00489)", 0.125),
    ("N[C@@H]1[C@@H](O)[C@H](O)[C@@H](CO)O[C@H]1c1nc(-c2ccc3ccccc3c2)n[nH]1", "Glycogen phosphorylase, muscle form (Oryctolagus cuniculus, UniProt P00489)", 5.3),
]

---

Molecular target: Glycogen phosphorylase, liver form (Homo sapiens)
Sequence (P06737 whole entry): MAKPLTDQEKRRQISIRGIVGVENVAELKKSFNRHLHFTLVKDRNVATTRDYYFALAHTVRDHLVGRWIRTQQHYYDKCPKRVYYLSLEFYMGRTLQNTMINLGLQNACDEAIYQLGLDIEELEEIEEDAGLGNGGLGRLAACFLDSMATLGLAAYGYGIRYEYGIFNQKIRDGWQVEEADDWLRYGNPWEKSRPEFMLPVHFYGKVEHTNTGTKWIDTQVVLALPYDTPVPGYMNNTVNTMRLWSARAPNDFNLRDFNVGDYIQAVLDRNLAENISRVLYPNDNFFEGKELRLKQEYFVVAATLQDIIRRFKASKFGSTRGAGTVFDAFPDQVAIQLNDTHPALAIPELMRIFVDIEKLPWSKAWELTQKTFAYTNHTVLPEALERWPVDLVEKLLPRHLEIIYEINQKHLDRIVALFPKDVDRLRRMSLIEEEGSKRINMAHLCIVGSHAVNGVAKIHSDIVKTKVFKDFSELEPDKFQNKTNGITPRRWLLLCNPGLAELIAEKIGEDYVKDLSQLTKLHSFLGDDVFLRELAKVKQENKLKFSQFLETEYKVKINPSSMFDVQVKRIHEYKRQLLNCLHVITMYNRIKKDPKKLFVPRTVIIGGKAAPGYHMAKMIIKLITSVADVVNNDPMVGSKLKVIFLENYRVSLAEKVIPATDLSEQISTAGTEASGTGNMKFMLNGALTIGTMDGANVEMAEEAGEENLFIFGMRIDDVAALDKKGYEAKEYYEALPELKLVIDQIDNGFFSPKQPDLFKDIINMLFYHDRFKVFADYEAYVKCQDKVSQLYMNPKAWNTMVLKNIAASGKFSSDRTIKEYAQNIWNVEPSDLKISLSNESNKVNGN
Test: Competitive inhibition of 6xHis-tagged human liver glycogen phosphorylase-a expressed in Escherichia coli BL21 Gold (DE3) assessed as release of inorganic phosphate using varying levels of glucose-1-phosphate and constant concentration of AMP and glycogen preincubated for 15 mins with AMP and glycogen followed by glucose-1-phosphate addition by Lineweaver-Burk plot method

# structure as smiles, Ki, µM
data = [
    ("N[C@@H]1[C@@H](O)[C@H](O)[C@@H](CO)O[C@H]1c1nc(-c2ccc3ccccc3c2)c[nH]1", 0.143),
    ("N[C@@H]1[C@@H](O)[C@H](O)[C@@H](CO)O[C@H]1c1nc(-c2ccccc2)n[nH]1", 30.8),
    ("N[C@@H]1[C@@H](O)[C@H](O)[C@@H](CO)O[C@H]1c1nc(-c2ccc3ccccc3c2)n[nH]1", 7.6),
    ("N[C@@H]1[C@@H](O)[C@H](O)[C@@H](CO)O[C@H]1c1nc(-c2ccccc2)c[nH]1", 2.73),
]

---

biological target: Glycogen phosphorylase, muscle form (Oryctolagus cuniculus, UniProt P00489)
recorded endpoint: Ki (µM)

# structure as smiles, experimental target, recorded endpoint, reported
measured = [
    ("O=c1[nH]c(=O)n([C@@H]2O[C@H](CO)[C@@H](O)[C@@H](CO)[C@H]2O)cc1F", "Glycogen phosphorylase, muscle form (Oryctolagus cuniculus, UniProt P00489)", "Ki", 27.1),
]
